# ASSAYED TARGET: Sodium-dependent serotonin transporter (Homo sapiens)
# Sequence (P31645 whole entry): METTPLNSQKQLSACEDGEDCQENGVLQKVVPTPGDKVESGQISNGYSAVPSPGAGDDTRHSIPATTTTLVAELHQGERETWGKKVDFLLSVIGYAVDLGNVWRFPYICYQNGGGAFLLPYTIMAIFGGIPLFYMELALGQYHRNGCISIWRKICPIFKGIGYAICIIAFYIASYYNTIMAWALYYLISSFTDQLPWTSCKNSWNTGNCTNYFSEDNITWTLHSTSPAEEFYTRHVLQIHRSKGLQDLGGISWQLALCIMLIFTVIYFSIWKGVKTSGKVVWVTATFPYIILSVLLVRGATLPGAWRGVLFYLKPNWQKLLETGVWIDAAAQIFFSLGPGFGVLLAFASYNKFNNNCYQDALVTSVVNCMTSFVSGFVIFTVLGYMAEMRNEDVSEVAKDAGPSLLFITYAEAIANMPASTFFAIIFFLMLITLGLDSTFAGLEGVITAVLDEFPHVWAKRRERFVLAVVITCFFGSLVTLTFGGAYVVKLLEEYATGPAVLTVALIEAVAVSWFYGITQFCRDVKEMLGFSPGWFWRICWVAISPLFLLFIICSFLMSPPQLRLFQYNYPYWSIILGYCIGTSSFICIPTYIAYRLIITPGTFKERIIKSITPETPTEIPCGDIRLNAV
QUANTITY KIND: Ki

COMPOUND: COc1cccc(CNC(=O)c2nc3scc(CN(C)Cc4ccccc4)c3c(=O)[nH]2)c1 [T-26f]
QUANTITY KIND: Ki
OBSERVED VALUE: 831 nM

---

# ASSAYED TARGET: Sigma non-opioid intracellular receptor 1 (Homo sapiens)
# Sequence (Q99720 whole entry): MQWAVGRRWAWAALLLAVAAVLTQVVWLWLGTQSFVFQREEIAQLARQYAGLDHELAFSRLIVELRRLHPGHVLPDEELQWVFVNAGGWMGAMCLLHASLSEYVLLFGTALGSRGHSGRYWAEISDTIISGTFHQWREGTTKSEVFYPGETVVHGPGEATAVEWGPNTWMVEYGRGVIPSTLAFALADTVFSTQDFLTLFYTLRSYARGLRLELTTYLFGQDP
# PROCEDURE SUMMARY: GPCRScan assay: inhibition of Sigma 1
pKi: −log10 of the molar value.
QUANTITY KIND: pKi

MOLECULE: COc1cccc(CNC(=O)c2nc3scc(CN(C)Cc4ccccc4)c3c(=O)[nH]2)c1 [T-26f]
QUANTITY KIND: pKi
OBSERVED VALUE: 6.58

---

# ASSAYED TARGET: 5-hydroxytryptamine receptor 2B (Homo sapiens)
# Sequence (P41595 whole entry): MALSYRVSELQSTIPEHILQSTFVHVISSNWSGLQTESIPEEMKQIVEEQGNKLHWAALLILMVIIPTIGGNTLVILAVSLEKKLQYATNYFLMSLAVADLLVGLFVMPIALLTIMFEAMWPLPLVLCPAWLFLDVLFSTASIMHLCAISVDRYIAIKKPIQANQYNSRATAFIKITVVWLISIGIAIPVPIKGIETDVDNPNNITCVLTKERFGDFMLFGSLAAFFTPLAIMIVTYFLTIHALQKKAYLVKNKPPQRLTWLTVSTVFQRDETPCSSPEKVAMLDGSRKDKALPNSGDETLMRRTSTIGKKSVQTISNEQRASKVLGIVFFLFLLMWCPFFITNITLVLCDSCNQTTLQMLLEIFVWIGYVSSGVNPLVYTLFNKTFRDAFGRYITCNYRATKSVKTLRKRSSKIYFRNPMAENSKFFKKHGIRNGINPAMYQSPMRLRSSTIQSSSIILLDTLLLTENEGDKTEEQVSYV
pKi: −log10 of the molar value.
QUANTITY KIND: pKi

COMPOUND: COc1cccc(CNC(=O)c2nc3scc(CN(C)Cc4ccccc4)c3c(=O)[nH]2)c1 [T-26f]
QUANTITY KIND: pKi
OBSERVED VALUE: 5.79

Recorded values, source ChEMBL document CHEMBL4507300.
